Recorded measurements of logD, one per entry
- Test description: physchem
- Particulars: octanol/water

Sample records with logD:
[[record]]
molecule = "CC(=O)NCc1ccc2c(c1)C(N1CCN(C)CC1)Cc1ccccc1S2 (racemic)"
recorded_result = 2.65

[[record]]
molecule = "Cn1nnc(-c2ccc3c(c2)c(C2CCN(CCN4CCNC4=O)CC2)cn3-c2ccc(F)cc2)n1"
recorded_result = 3.06

[[record]]
molecule = "CN1CCC(c2cn(-c3ccc(F)cc3)c3ccc(-c4cncnc4)cc23)CC1"
recorded_result = 1.9


// next entry
Entry under review: CC(C)C(=O)NCc1ccc2c(c1)C(N1CCN(C)CC1)Cc1ccccc1S2 (racemic) . Reported logD?
3.1

====

- Test description: Apparent permeability across human Caco-2 cells
- Format: ADME, cell-based
The entries below come with measured Papp values attached.
Enter your answer as a number in ×10⁻⁶ cm/s; do not include the unit.

Known Papp results, listed for orientation:
[[record]]
compound = "Cn1nnc(-c2ccc3c(c2)c(C2CCN(CCN4CCNC4=O)CC2)cn3-c2ccc(F)cc2)n1"
recorded_result = 12

[[record]]
compound = "CN1CCC(c2cn(-c3ccc(F)cc3)c3ccc(-c4cncnc4)cc23)CC1"
recorded_result = 13

[[record]]
compound = "CC(=O)NCc1ccc2c(c1)C(N1CCN(C)CC1)Cc1ccccc1S2 (racemic)"
recorded_result = 33

[[record]]
compound = "CCN1CCC[C@H]1CNC(=O)c1c(O)c(Cl)cc(Cl)c1OC [RACLOPRIDE]"
recorded_result = 66


Now for a further compound.
Record request: Papp value, item CC(C)C(=O)NCc1ccc2c(c1)C(N1CCN(C)CC1)Cc1ccccc1S2 (racemic)
57
